Let's look at some compounds and their measured EC50.
- Tested on: NF-κB pathway, THP1-Dual™ cells
- Procedure summary: STING reporter assay in THP1-Dual cells, NF-κB pathway (SEAP, QUANTI-Blue)
- Type: cell-based, human
- Condition details: Homo sapiens, THP1-Dual, 20 h, THP1-Dual cells, 10% human plasma, 20 hours; SEAP; 100% activation = 100 μM cGAMP; read-out: NFkB (EC50 μM)
# unit: µM | format: bare number

Compound: COC(OC(=O)c1cc(C#N)cc2cc(CNC(=O)c3cnn4cccnc34)oc12)C(F)(F)F (single isomer, unassigned)
Tested on: NF-κB pathway, THP1-Dual™ cells
Unit name: µM
EC50: 2.3

Compound: O=C(OCC(F)(F)F)c1cc(C(F)(F)F)cc2cc(CNC(=O)c3cnn4cccnc34)oc12
Tested on: NF-κB pathway, THP1-Dual™ cells
Unit name: µM
EC50: 0.52

Compound: O=C(OCC(F)(F)F)c1cc(F)cc2cc(Cn3cnc4ccncc4c3=O)oc12
Tested on: NF-κB pathway, THP1-Dual™ cells
Unit name: µM
EC50: 3.2

Compound: Cc1cc(C(=O)SCC(F)(F)F)c2oc(CNC(=O)c3cnn4cccnc34)cc2c1
Tested on: NF-κB pathway, THP1-Dual™ cells
Unit name: µM
EC50: 0.56

Compound: O=C(OCC(F)(F)F)c1cc(F)c(F)c2cc(CNC(=O)c3cnn4cccnc34)oc12
Tested on: NF-κB pathway, THP1-Dual™ cells
Unit name: µM
EC50: 1.3

Lookup result for "O=C(OCC(F)(F)F)c1ccc(Cl)c2cc(CNC(=O)c3cnn4cccnc34)oc12" ; measured EC50: 1

Kindly note the recorded EC50 for "C[C@H](NC(=O)c1cnn2cccnc12)c1cc2cc(Cl)cc(C(=O)OCC(F)(F)F)c2o1" , which is 2.6

EC50 recorded for this compound, COC(=O)c1cc(C)cc2cc(C(C)NC(=O)c3cnn4cccnc34)oc12 (racemic) [Example 96] , is 2
